Entry source: PubChem BioAssay (Tox21)

Assay: qHTS RealTime-Glo MT Cell Viability Assay in HEK293 cells - 24 hour (AID 1224886); also: top concentration of the series differs between compounds; nearly all actives have a fitted effect of over 50% in size
Conditions: RealTime-Glo luminescence; series mostly up to 76.8 µM
Results filed as inconclusive are left out. Activity calls are given as the source filed them. Calls follow the shape of the dose curve; as a rule, active = well fitted cell-killing curve with a large enough effect in the repeat runs; inconclusive = weak or mixed curves, or effect the other way; inactive = flat fitted curve, though single readings scatter.
# valid calls are active, inactive; nothing else

Please review the following examples before continuing.
compound	label
O=S(=O)(c1ccc(Cl)cc1)c1cc(Cl)c(Cl)cc1Cl	inactive
Nc1c(Cl)c(Cl)nc(C(=O)O)c1Cl	inactive
c1ccc(OP(Oc2ccccc2)Oc2ccccc2)cc1	inactive
COC(=O)c1ccccc1N	inactive
C[C@]12CC[C@H]3[C@@H](CC[C@@]45O[C@@H]4C(O)=C(C#N)C[C@]35C)[C@@H]1CC[C@@H]2O	inactive

Ask: For `O=c1[nH]c(=O)[nH]c(=O)[nH]1` , which call appears in the assay record?
Reply: inactive

Ask: Record: `ClCCBr`
Reply: inactive

Ask: Record: `Nc1ccc(Br)cc1`
Reply: inactive

Ask: Record: NCC(O)c1ccc(O)cc1 (configuration not stated)
Reply: inactive

Ask: Record: `C#CCN(C)[C@H](C)Cc1ccccc1`
Reply: inactive

---

Assay: qHTS assay to identify small molecule antagonists of the androgen receptor (AR) signaling pathway using the MDA cell line in the presence of 0.5 nM R1881 - cell viability counter screen (AID 1259242); also: nearly all actives have a fitted effect of over 45% in size
Conditions: MDA-kb2 viability, CellTiter-Fluor protease fluorescence, 16 h; series mostly up to 92.4 µM
Inconclusive results are not listed. Calls of active or inactive are those of the source. Calls come from the whole dose curve; as a rule, active = well fitted cell-killing curve with a large enough effect in the repeat runs; inconclusive = weak or mixed curves, or effect the other way; inactive = flat fitted curve, though single readings scatter.
measurement.type: outcome

Worked examples follow.
molecule	outcome
Cc1cccc([N+](=O)[O-])c1	inactive
Clc1ccccc1Cl	inactive
C1CN2CCN1CC2	inactive
O=NN1CCCCCCC1	inactive
CCCCCCCCCCCC#N	inactive

Ask: // query outcome value for entry `CN(C)CCO`
Reply: inactive

Ask: Record: `CC(C)NC(=O)N1CC(=O)N(c2cc(Cl)cc(Cl)c2)C1=O`
Reply: inactive

Ask: Record: `CC(C)C#N`
Reply: inactive

Ask: Record: `CCOP(=S)(OCC)Oc1cnc2ccccc2n1`
Reply: inactive

Ask: Record: `CCC(C)(CC)c1cc(NC(=O)c2c(OC)cccc2OC)on1`
Reply: inactive

Ask: Record: `CC(C)(C)OOC(C)(C)C`
Reply: inactive

Ask: Record: `Cc1cc(Cl)ccc1O`
Reply: inactive

Ask: Record: `c1cc2c3c(cccc3c1)CC2`
Reply: inactive

Ask: Record: `Cc1[nH]c(=O)n(C(C)(C)C)c(=O)c1Cl`
Reply: inactive

Ask: Record: `CCCCCCCCCl`
Reply: inactive

---

Assay: qHTS assay to identify small molecule agonists of the progesterone receptor (PR) signaling pathway - cell viability counter screen (AID 1346799); also: nearly all actives have a fitted effect of over 45% in size
Conditions: PR-UAS-bla HEK293T viability, CellTiter-Glo luminescence, 16 h; series mostly up to 92.4 µM
Results filed as inconclusive are left out. Activity calls are given as the source filed them. Calls come from the whole dose curve.
measurement.type: outcome

Worked examples follow.
compound	outcome
Cc1ccc([N+](=O)[O-])cc1C	inactive
CC(C)C#N	inactive
O=NN1CCCCCCC1	inactive
Clc1ccccc1Cl	inactive
CC(NC(C)(C)C)C(=O)c1cccc(Cl)c1 (stereo not given)	inactive

Ask: // query outcome value for entry `CN(N=O)c1ccccc1`
Reply: inactive

Ask: Record: `O=c1[nH]c(=O)[nH]c(=O)[nH]1`
Reply: inactive

Ask: Record: `C[C@]12CC[C@H]3[C@@H](CC[C@@]45O[C@@H]4C(O)=C(C#N)C[C@]35C)[C@@H]1CC[C@@H]2O`
Reply: inactive

Ask: Record: `Cc1ccccc1O`
Reply: inactive

Ask: Record: `O=C1CCCN1`
Reply: inactive

Ask: Record: `CC(=O)C=C(C)C`
Reply: inactive

Ask: Record: `Nc1c(Cl)c(Cl)nc(C(=O)O)c1Cl`
Reply: inactive

Ask: Record: `COc1ccc2c3c1O[C@H]1[C@@H](O)C=C[C@H]4[C@@H](C2)N(C)CC[C@@]341`
Reply: inactive

Ask: Record: `CCOP(=S)(OCC)Oc1cnc2ccccc2n1`
Reply: inactive

Ask: Record: `CCCCN(CC)C(=O)SCCC`
Reply: inactive
